assay_explanation: Percent inhibition of [3H]PSB-11 binding to adenosine A3 receptor at 10 uM
value_type: pKi
Scale for pKi: -log10 of concentration given in mol/L; no unit attached.

Prompt line: Given the compound CCCn1c(=O)c2nc(C3CC(C)(C)N([O])C(C)(C)C3)[nH]c2n(CCC)c1=O , what is its reported pKi?
Response line: 7.35
